EXPERIMENT: Neuroprotective activity in C57BL/6J mouse primary neocortical neurons assessed as inhibition of spontaneous Ca2+ oscillation amplitude measured for 15 mins by Fluo-4 dye based fluorescence analysis
Format: functional, cell-based
PARTICULARS: Primary neocortical neuron, 0.25 h
Measured IC50 values are reported for all entries that follow.
Field format: number, assumed µM, no unit text.

COMPOUND	IC50 (µM)
COc1cc(-c2cc3c(c(=O)o2)C[C@@]24OB(O)O[C@]5(CC[C@@]2(C)O3)C(C)(C)C=CC(=O)[C@]45C)cc(OC)c1OC	16

Turning to the following compound.
Q: Suppose we examine the compound COc1cc(-c2cc3c(c(=O)o2)C[C@]2(O)[C@@]4(C)C(=O)C=CC(C)(C)[C@]4(O)CC[C@@]2(C)O3)cc(OC)c1OC [TERRITREM B] ; what IC50 value has been reported?
Result: 5.4

====

EXPERIMENT: Neuroprotective activity in C57BL/6J mouse primary neocortical neurons assessed as inhibition of spontaneous Ca2+ oscillation frequency measured for 15 mins by Fluo-4 dye based fluorescence analysis
Format: functional, cell-based
PARTICULARS: Primary neocortical neuron, 0.25 h
MEASURED_PROPERTY: pIC50
Remember, pIC50 is on a log scale: it is -log10 of the molar concentration.

CPD_SMILES	pIC50
COc1cc(-c2cc3c(c(=O)o2)C[C@]2(O)[C@@]4(C)C(=O)C=CC(C)(C)[C@]4(O)CC[C@@]2(C)O3)cc(OC)c1OC	5.07

Turning to the following compound.
Q: Suppose we examine the compound `COc1cc(-c2cc3c(c(=O)o2)C[C@@]24OB(O)O[C@]5(CC[C@@]2(C)O3)C(C)(C)C=CC(=O)[C@]45C)cc(OC)c1OC` ; what pIC50 value has been reported?
Result: 4.82
